Substrate: ICOS (Homo sapiens (Human)) (UniProt Q9Y6W8)
Sequence (Q9Y6W8 21-199 limits assumed): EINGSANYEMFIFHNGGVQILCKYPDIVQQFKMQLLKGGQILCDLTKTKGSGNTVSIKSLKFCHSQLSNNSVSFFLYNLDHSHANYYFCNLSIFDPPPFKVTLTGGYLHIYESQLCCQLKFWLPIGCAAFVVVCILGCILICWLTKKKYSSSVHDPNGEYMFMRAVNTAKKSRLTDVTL
Procedure summary: flow cytometry, transfected cells
Recorded MFI by entry
Value expressed in MFI; do not type the unit.

// below: answered binders
* ICOSL-Fc N52R/N57F/Q100T (Fc fusion) DTQEKEVRAMVGSDVELSCACPEGSRFDLNDVYVYWQTSESKTVVTYHIPQRSSLEFVDSRYRNRALMSPAGMLRGDFSLRLFNVTPQDEQKFHCLVLSTSLGFQEVLSVEVTLHVAANFSVPVVSAPHSPSQDELTFTCTSINGYPRPNVYWINKTDNSLLDQALQNDTVFLNMRGLYDVVSVLRIARTPSVNIGCCIENVLLQQNLTVGSQTGNDIGERDKITENPVSTGEKNAAT | 270000
* ICOSL-Fc N52Q/N57F (Fc fusion) DTQEKEVRAMVGSDVELSCACPEGSRFDLNDVYVYWQTSESKTVVTYHIPQQSSLEFVDSRYRNRALMSPAGMLRGDFSLRLFNVTPQDEQKFHCLVLSQSLGFQEVLSVEVTLHVAANFSVPVVSAPHSPSQDELTFTCTSINGYPRPNVYWINKTDNSLLDQALQNDTVFLNMRGLYDVVSVLRIARTPSVNIGCCIENVLLQQNLTVGSQTGNDIGERDKITENPVSTGEKNAAT | 192000
* ICOSL-Fc N52M/N57H/Q100S (Fc fusion) DTQEKEVRAMVGSDVELSCACPEGSRFDLNDVYVYWQTSESKTVVTYHIPQMSSLEHVDSRYRNRALMSPAGMLRGDFSLRLFNVTPQDEQKFHCLVLSSSLGFQEVLSVEVTLHVAANFSVPVVSAPHSPSQDELTFTCTSINGYPRPNVYWINKTDNSLLDQALQNDTVFLNMRGLYDVVSVLRIARTPSVNIGCCIENVLLQQNLTVGSQTGNDIGERDKITENPVSTGEKNAAT | 266000
* ICOSL-Fc N52A/N57F/Q100S (Fc fusion) DTQEKEVRAMVGSDVELSCACPEGSRFDLNDVYVYWQTSESKTVVTYHIPQASSLEFVDSRYRNRALMSPAGMLRGDFSLRLFNVTPQDEQKFHCLVLSSSLGFQEVLSVEVTLHVAANFSVPVVSAPHSPSQDELTFTCTSINGYPRPNVYWINKTDNSLLDQALQNDTVFLNMRGLYDVVSVLRIARTPSVNIGCCIENVLLQQNLTVGSQTGNDIGERDKITENPVSTGEKNAAT | 242000

// MFI lookup, binder = ICOSL-Fc N52T/N57H/Q100A (Fc fusion) DTQEKEVRAMVGSDVELSCACPEGSRFDLNDVYVYWQTSESKTVVTYHIPQTSSLEHVDSRYRNRALMSPAGMLRGDFSLRLFNVTPQDEQKFHCLVLSASLGFQEVLSVEVTLHVAANFSVPVVSAPHSPSQDELTFTCTSINGYPRPNVYWINKTDNSLLDQALQNDTVFLNMRGLYDVVSVLRIARTPSVNIGCCIENVLLQQNLTVGSQTGNDIGERDKITENPVSTGEKNAAT , result: 220000
